Tested on: 633275-114-R-J1-PDC complex spheroids, viability
experimentDescription: Anticancer human tumor 633275-114-R-J1-PDC patient-derived endometrial adenocarcinoma cell line growth inhibition [GQUAD]
testContext: second compound 0.0316 µM; first compound 3.16 µM; hits give low values

# molecule, viability, T/C (%)
rows = [
    ("Cc1cccc(N(C)C(=O)C2C(O)CCN2c2nc(C)cc(C(F)(F)F)c2C#N)c1 (stereo not drawn) + Cc1[nH]c2ccc(F)cc2c1-c1nc2c3cccnc3c3ncccc3c2[nH]1", 99.8),
    ("C=CCn1c(=O)c2cnc(Nc3ccc(N4CCN(C)CC4)cc3)nc2n1-c1cccc(C(C)(C)O)n1 + CN(C)c1ccc(Nc2c3ccc(NC(=O)CCN4CCCC4)cc3nc3cc(NC(=O)CCN4CCCC4)ccc23)cc1", 19.5),
    ("O=C(NO)c1cnc(N2CCN(S(=O)(=O)c3ccc4ccccc4c3)CC2)nc1 + Cc1[nH]c2ccc(F)cc2c1-c1nc2c3cccnc3c3ncccc3c2[nH]1", 16.9),
]

====

The entries below are paired with their reported viability, T/C.
System: 633275-114-R-J1-PDC complex spheroids, viability
experimentDescription: Anticancer human tumor 633275-114-R-J1-PDC cell line growth inhibition [GQUAD];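 also: spheroids exposed to the agents for seven days; percent of DMSO vehicle control viability which is 100%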
testContext: second compound 1 µM; first compound 3.16 µM; hits give low values
endpoint: viability, T/C

# molecule, targetSystem, endpoint, endpointValue
rows = [
    ("COc1ccc([C@@H](O)c2cc(-c3ncnc4cc(N5CCOCC5)ccc34)c(F)cc2Cl)nn1 + CN(C)c1ccc(Nc2c3ccc(NC(=O)CCN4CCCC4)cc3nc3cc(NC(=O)CCN4CCCC4)ccc23)cc1", "633275-114-R-J1-PDC complex spheroids, viability", "viability, T/C", "38.7%"),
    ("Nc1ccn(C2OC(CO)C(O)C2(F)F)c(=O)n1 (stereo not drawn) + Cc1[nH]c2ccc(F)cc2c1-c1nc2c3cccnc3c3ncccc3c2[nH]1", "633275-114-R-J1-PDC complex spheroids, viability", "viability, T/C", "24%"),
    ("COc1cc(C2c3cc4c(cc3C(OC3OC5COC(C)OC5C(O)C3O)C3COC(=O)C23)OCO4)cc(OC)c1O (stereo not drawn) + CN(C)c1ccc(Nc2c3ccc(NC(=O)CCN4CCCC4)cc3nc3cc(NC(=O)CCN4CCCC4)ccc23)cc1", "633275-114-R-J1-PDC complex spheroids, viability", "viability, T/C", "36.7%"),
    ("CC(C)(O)C1CCC(Nc2ccc3ncc(-c4cccc(C(F)(F)F)c4)n3n2)CC1 (stereo not drawn) + CN(C)c1ccc(Nc2c3ccc(NC(=O)CCN4CCCC4)cc3nc3cc(NC(=O)CCN4CCCC4)ccc23)cc1", "633275-114-R-J1-PDC complex spheroids, viability", "viability, T/C", "27.8%"),
    ("C=CCn1c(=O)c2cnc(Nc3ccc(N4CCN(C)CC4)cc3)nc2n1-c1cccc(C(C)(C)O)n1 + Cc1cnc(CNC(=O)c2c(=O)c3ccc(N4CCCN(C)CC4)nc3n3c2sc2ccccc23)cn1", "633275-114-R-J1-PDC complex spheroids, viability", "viability, T/C", "20.7%"),
    ("CCCS(=O)(=O)Nc1ccc(F)c(C(=O)c2c[nH]c3ncc(-c4ccc(Cl)cc4)cc23)c1F + Cc1cnc(CNC(=O)c2c(=O)c3ccc(N4CCCN(C)CC4)nc3n3c2sc2ccccc23)cn1", "633275-114-R-J1-PDC complex spheroids, viability", "viability, T/C", "43.3%"),
    ("CC(C)n1c(=O)n(C)c2cnc3cc(F)c(-c4ccc(OCCCN5CCCCC5)nc4)cc3c21 + Cc1cnc(CNC(=O)c2c(=O)c3ccc(N4CCCN(C)CC4)nc3n3c2sc2ccccc23)cn1", "633275-114-R-J1-PDC complex spheroids, viability", "viability, T/C", "39.2%"),
    ("CC1COCCN1c1cc(C2(S(C)(=N)=O)CC2)nc(-c2ccnc3[nH]ccc23)n1 (stereo not drawn) + CN(C)c1ccc(Nc2c3ccc(NC(=O)CCN4CCCC4)cc3nc3cc(NC(=O)CCN4CCCC4)ccc23)cc1", "633275-114-R-J1-PDC complex spheroids, viability", "viability, T/C", "49%"),
    ("CC(C)n1c(=O)n(C)c2cnc3cc(F)c(-c4ccc(OCCCN5CCCCC5)nc4)cc3c21 + CN(C)c1ccc(Nc2c3ccc(NC(=O)CCN4CCCC4)cc3nc3cc(NC(=O)CCN4CCCC4)ccc23)cc1", "633275-114-R-J1-PDC complex spheroids, viability", "viability, T/C", "85.1%"),
    ("C=CC(=O)N1CCN(c2nc(=O)n(-c3c(C)ccnc3C(C)C)c3nc(-c4c(O)cccc4F)c(F)cc23)C(C)C1 (stereo not drawn) + CN(C)c1ccc(Nc2c3ccc(NC(=O)CCN4CCCC4)cc3nc3cc(NC(=O)CCN4CCCC4)ccc23)cc1", "633275-114-R-J1-PDC complex spheroids, viability", "viability, T/C", "104%"),
    ("C=CCn1c(=O)c2cnc(Nc3ccc(N4CCN(C)CC4)cc3)nc2n1-c1cccc(C(C)(C)O)n1 + CN(C)c1ccc(Nc2c3ccc(NC(=O)CCN4CCCC4)cc3nc3cc(NC(=O)CCN4CCCC4)ccc23)cc1", "633275-114-R-J1-PDC complex spheroids, viability", "viability, T/C", "19.8%"),
    ("CC1COCCN1c1cc(C2(O)CC3CCC(C2)O3)c2cnn(-c3ccn[nH]3)c2n1 (stereo not drawn) + CN(C)c1ccc(Nc2c3ccc(NC(=O)CCN4CCCC4)cc3nc3cc(NC(=O)CCN4CCCC4)ccc23)cc1", "633275-114-R-J1-PDC complex spheroids, viability", "viability, T/C", "14.4%"),
    ("C=CC(=O)N1CCN(c2nc(=O)n(-c3c(C)ccnc3C(C)C)c3nc(-c4c(O)cccc4F)c(F)cc23)C(C)C1 (stereo not drawn) + Cc1cnc(CNC(=O)c2c(=O)c3ccc(N4CCCN(C)CC4)nc3n3c2sc2ccccc23)cn1", "633275-114-R-J1-PDC complex spheroids, viability", "viability, T/C", "47.7%"),
    ("O=C(c1cc(Cc2n[nH]c(=O)c3ccccc23)ccc1F)N1CCN(C(=O)C2CC2)CC1 + Cc1[nH]c2ccc(F)cc2c1-c1nc2c3cccnc3c3ncccc3c2[nH]1", "633275-114-R-J1-PDC complex spheroids, viability", "viability, T/C", "74.1%"),
    ("CCCS(=O)(=O)Nc1ccc(F)c(C(=O)c2c[nH]c3ncc(-c4ccc(Cl)cc4)cc23)c1F + Cc1[nH]c2ccc(F)cc2c1-c1nc2c3cccnc3c3ncccc3c2[nH]1", "633275-114-R-J1-PDC complex spheroids, viability", "viability, T/C", "90.1%"),
    ("Cc1cccc(N(C)C(=O)C2C(O)CCN2c2nc(C)cc(C(F)(F)F)c2C#N)c1 (stereo not drawn) + Cc1[nH]c2ccc(F)cc2c1-c1nc2c3cccnc3c3ncccc3c2[nH]1", "633275-114-R-J1-PDC complex spheroids, viability", "viability, T/C", "91.7%"),
    ("CC1COCCN1c1cc(C2(O)CC3CCC(C2)O3)c2cnn(-c3ccn[nH]3)c2n1 (stereo not drawn) + Cc1[nH]c2ccc(F)cc2c1-c1nc2c3cccnc3c3ncccc3c2[nH]1", "633275-114-R-J1-PDC complex spheroids, viability", "viability, T/C", "14.9%"),
    ("COc1cccc2c1C(=O)c1c(O)c3c(c(O)c1C2=O)CC(O)(C(=O)CO)CC3OC1CC(N)C(O)C(C)O1 (stereo not drawn) + CN(C)c1ccc(Nc2c3ccc(NC(=O)CCN4CCCC4)cc3nc3cc(NC(=O)CCN4CCCC4)ccc23)cc1", "633275-114-R-J1-PDC complex spheroids, viability", "viability, T/C", "3.04%"),
]
